Where do these numbers come from? They come from PubChem BioAssay AID1159588.

Biological target: Calcium-dependent protein kinase 4 (Plasmodium falciparum (isolate 3D7)) (UniProt Q8IBS5)
Sequence (Q8IBS5 whole entry, looked up): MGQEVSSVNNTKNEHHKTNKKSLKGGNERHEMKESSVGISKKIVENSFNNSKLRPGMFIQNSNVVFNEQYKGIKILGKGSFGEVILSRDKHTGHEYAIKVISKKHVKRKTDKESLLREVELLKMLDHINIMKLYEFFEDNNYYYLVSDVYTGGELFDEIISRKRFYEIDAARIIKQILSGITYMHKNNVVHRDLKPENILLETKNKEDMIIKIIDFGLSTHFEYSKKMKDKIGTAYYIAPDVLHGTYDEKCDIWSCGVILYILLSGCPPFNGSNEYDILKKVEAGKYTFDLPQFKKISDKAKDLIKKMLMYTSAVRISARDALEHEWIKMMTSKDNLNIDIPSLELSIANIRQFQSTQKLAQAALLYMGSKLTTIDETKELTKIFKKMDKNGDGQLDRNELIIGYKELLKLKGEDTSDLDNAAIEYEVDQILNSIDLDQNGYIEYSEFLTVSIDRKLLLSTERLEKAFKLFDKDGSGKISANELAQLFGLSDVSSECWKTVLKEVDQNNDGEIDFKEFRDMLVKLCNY
Experiment: PfCDPK4 kinase inhibitors, biochemical, TCAMS library (AID 1159588)
Conditions: recombinant PfCDPK4, Kinase-Glo ATP depletion luminescence
measure.name: IC50

(Q) May I ask what IC50 has been recorded for CCn1c(-c2nonc2N)nc2c(-c3cccc(NC(=O)Nc4ccc5c(c4)CCC5)c3)ncc(OCCCN)c21 ?
(A) 59 nM

(Q) Quick one: IC50 of Cn1cccc1C(=O)Nc1cccc(-c2nn3ccccc3c2-c2ccnc(Nc3ccc4c(c3)OCCO4)n2)c1 ?
(A) 191 nM

(Q) Which IC50 value is on record for NS(=O)(=O)c1cccc(Nc2nccc(-c3c(-c4cccc(NC(=O)c5c(F)cccc5F)c4)nn4ccccc34)n2)c1 ?
(A) 51 nM

(Q) Request the reported IC50 associated with CC(c1cccc(Nc2nccc(-c3c(-c4cccc(NC(=O)c5c(F)cccc5F)c4)nn4ncccc34)n2)c1)S(C)(=O)=O (centres undefined)
(A) 24 nM
